- Experiment description: Inhibition of BMX (unknown origin) transfected in mouse Ba/F3 cells assessed as reduction in cell viability incubated for 48 hrs by brightglo-luciferase reporter gene assay
Measure: IC50

COc1ccc(-c2cnn3c(N)c(-c4nccs4)c(OC4CCN(C)CC4)nc23)cc1OC ... > 11 µM

# return IC50 for each item in the list
1. COc1ccc(-c2cnn3c(N)c(-c4ccccc4)c(OC4CCN(C)CC4)nc23)cc1OC
2. COC(=O)Nc1ccc(-c2c(OC3CCN(C)CC3)nc3c(-c4ccc(OC)c(OC)c4)cnn3c2N)cc1

Result block:
1. > 11 µM
2. > 7.4 µM

----------
- Experiment description: Inhibition of IGF1R (unknown origin) transfected in mouse Ba/F3 cells assessed as reduction in cell viability incubated for 48 hrs by brightglo-luciferase reporter gene assay
pIC50: −log10 of the molar value.
Measure: pIC50

Consider the following illustrative entries.
COC(=O)Nc1ccc(-c2c(OC3CCN(C)CC3)nc3c(-c4ccc(OC)c(OC)c4)cnn3c2N)cc1 ... < 5.12
COc1ccc(-c2cnn3c(N)c(-c4nccs4)c(OC4CCN(C)CC4)nc23)cc1OC ... 5.06

Consider the additional compound presented here.
Query block: Output pIC50 of COc1ccc(-c2cnn3c(N)c(-c4ccccc4)c(OC4CCN(C)CC4)nc23)cc1OC
Result block: < 4.96

----------
- Experiment description: Inhibition of PDGFRbeta (unknown origin) transfected in mouse Ba/F3 cells assessed as reduction in cell viability incubated for 48 hrs by brightglo-luciferase reporter gene assay
Measure: pIC50
One number for each entry, as −log10 of the molar value.

Worked cases, answers included:
COc1ccc(-c2cnn3c(N)c(-c4ccccc4)c(OC4CCN(C)CC4)nc23)cc1OC ... 7.00
COC(=O)Nc1ccc(-c2c(OC3CCN(C)CC3)nc3c(-c4ccc(OC)c(OC)c4)cnn3c2N)cc1 ... 7.66

Please look at the following molecule next.
Query block: Provide pIC50 value for the following molecule: COc1ccc(-c2cnn3c(N)c(-c4nccs4)c(OC4CCN(C)CC4)nc23)cc1OC
Result block: 7.39

----------
- Experiment description: Inhibition of FMS (unknown origin) transfected in mouse Ba/F3 cells assessed as reduction in cell viability incubated for 48 hrs by brightglo-luciferase reporter gene assay
Kindly supply the reported IC50 values for the records listed here.
One number for each entry, in nM.

Consider the worked cases shown below.
COc1ccc(-c2cnn3c(N)c(-c4ccccc4)c(OC4CCN(C)CC4)nc23)cc1OC ... 400
COC(=O)Nc1ccc(-c2c(OC3CCN(C)CC3)nc3c(-c4ccc(OC)c(OC)c4)cnn3c2N)cc1 ... 82

// next entry
Query block: Quick one: give measured IC50 for COc1ccc(-c2cnn3c(N)c(-c4nccs4)c(OC4CCN(C)CC4)nc23)cc1OC
Result block: 4300

----------
- Experiment description: Inhibition of INSR (unknown origin) transfected in mouse Ba/F3 cells assessed as reduction in cell viability incubated for 48 hrs by brightglo-luciferase reporter gene assay
I'd be grateful if you could share measured IC50 for these entries.

Previously resolved entries follow.
COC(=O)Nc1ccc(-c2c(OC3CCN(C)CC3)nc3c(-c4ccc(OC)c(OC)c4)cnn3c2N)cc1 ... > 9.1 µM
COc1ccc(-c2cnn3c(N)c(-c4ccccc4)c(OC4CCN(C)CC4)nc23)cc1OC ... > 11 µM

# context switch: different molecule, same IC50
Query block: Write down IC50 measured for item COc1ccc(-c2cnn3c(N)c(-c4nccs4)c(OC4CCN(C)CC4)nc23)cc1OC
Result block: > 10 µM
